# Tested on: RPMI-8226
# protocol-details: NCI tumour cell line growth inhibition, 48 h
Active and inactive are the calls of the source. Rule as the data show it: active = GI50 up to about 1.1 µM and inactive = higher.
# output must be one of y = active, n = inactive

The examples below pair each entry with its known result.
COc1cc(CNc2ccc(C(C)C)cc2)cc(OC)c1OC    n
CN1C(=O)c2ccc3ccccc3c2C1=O    n
CC(C)(C)OC(=O)NC(Cc1ccc(OCc2ccccc2)cn1)C(N)=O (configuration not stated)    n

Ask: Please indicate how the test categorized Sc1nnc(COc2ccc(Cl)cc2Cl)[nH]1 .
Reply: n

Ask: Please indicate how the test categorized CCCCCCCCCCCCn1c(=O)cc(NCCCC)c2cc3c(NCCCC)cc(=O)n(CCCCCCCCCCCC)c3nc21 .
Reply: n

Ask: Please indicate how the test categorized CCOC(=O)/C=C1\Nc2ccccc2-n2nnnc21 .
Reply: n

Ask: Please indicate how the test categorized Cc1csc2nc3c(cnn3C)c(=S)n12 .
Reply: n

Ask: Please indicate how the test categorized CN1CN(c2ccccc2)C2(CCN(CCc3csc4ccccc34)CC2)C1=O .
Reply: n

====

# Test system: SK-MEL-28
# protocol-details: NCI tumour cell line growth inhibition, 48 h
Active and inactive are the calls of the source. No stated cut-off is given here; in the data, active = GI50 up to about 1.1 µM and inactive = higher.
Entries annotated with measured GI50

Example entries and their recorded answers appear below.
c1ccc(/N=c2/[nH]c3ccccc3s/c2=N/c2ccccc2)cc1    > 100 µM (inactive)
C[C@@H]1C(O)CC[C@H](C)C12CC=CC2=O (some centres not stated)    > 100 µM (inactive)
COC(=O)C1C2C=CC(C2)N1[C@@H](C)c1ccccc1 (some centres not stated)    > 100 µM (inactive)

Continue with the next compound.
Ask: Sample COc1ccc(OC)c2c(=S)c3ccccc3[nH]c12 — what was its GI50?
Reply: > 100 µM (inactive)

====

# Tested on: IGROV-1
# protocol-details: NCI tumour cell line growth inhibition, 48 h
Active and inactive are the calls of the source. Rule as the data show it: active = GI50 up to about 1.1 µM and inactive = higher.
# output must be one of active, inactive

Ask: Please indicate how the test categorized CN(C(=O)C1=CCC2(CC1)OCCO2)c1ccccc1I .
Reply: inactive

Ask: Please indicate how the test categorized CCCCC/C(C=O)=C\c1ccccc1 .
Reply: inactive

Ask: Please indicate how the test categorized Cc1nnc(N)nc1/C=C\c1ccc(N(C)C)cc1 .
Reply: inactive

====

Entries annotated with measured GI50
# Test system: KM12
# protocol-details: NCI tumour cell line growth inhibition, 48 h
Activity calls are given as the source filed them. Rule as the data show it: active = GI50 up to about 1.1 µM and inactive = higher.

Example entries and their recorded answers appear below.
Cc1ccc(NC(=O)/C(Cc2nc3ccc([N+](=O)[O-])cc3nc2O)=N\NC(=O)C[n+]2ccccc2)c(C)c1    74.6 µM (inactive)
O=C(c1ccc(Cl)cc1)N(C(=S)N1CCN(c2ccccc2)CC1)c1ccccc1    > 100 µM (inactive)

Continue with the next molecule.
Ask: Sample CN(C)c1ccc(/C=N/c2nc3cc4sc(/N=C/c5ccc(N(C)C)cc5)nc4cc3s2)cc1 — what was its GI50?
Reply: 46.7 µM (inactive)

====

# System: Malme-3M
# protocol-details: NCI tumour cell line growth inhibition, 48 h
Calls of active or inactive are those of the source. Rule as the data show it: active = GI50 up to about 1.1 µM and inactive = higher.
Entries annotated with measured GI50

CCOP(=O)(OCC)/C(=C/n1c(=S)[nH]c2ccccc21)C(=O)OC    > 100 µM (inactive)
NNc1cnn(-c2ccccc2)c(=O)c1Cl    > 100 µM (inactive)
O=S1(=O)OCCOS(=O)(=O)C1Br    > 100 µM (inactive)
COc1ccc(/C=C2\N=C(c3ccccc3)OC2=O)cc1OC(C)=O    13.5 µM (inactive)

Ask: Sample COc1cc(/C=C2\N=C(C)N(n3c(-c4ccccc4)nc4ccccc4c3=O)C2=O)cc(OC)c1OC — what was its GI50?
Reply: > 100 µM (inactive)
